Kindly state Ki for each of the entries shown.
biological target: opioid μ receptor (Rattus norvegicus, UniProt P33535); conditions: read-out: Ki (nM) ± SEM μ; displacement of [3H]DAMGO (1.4-3.0 nM), rat brain membranes
Sequence (P33535 whole entry): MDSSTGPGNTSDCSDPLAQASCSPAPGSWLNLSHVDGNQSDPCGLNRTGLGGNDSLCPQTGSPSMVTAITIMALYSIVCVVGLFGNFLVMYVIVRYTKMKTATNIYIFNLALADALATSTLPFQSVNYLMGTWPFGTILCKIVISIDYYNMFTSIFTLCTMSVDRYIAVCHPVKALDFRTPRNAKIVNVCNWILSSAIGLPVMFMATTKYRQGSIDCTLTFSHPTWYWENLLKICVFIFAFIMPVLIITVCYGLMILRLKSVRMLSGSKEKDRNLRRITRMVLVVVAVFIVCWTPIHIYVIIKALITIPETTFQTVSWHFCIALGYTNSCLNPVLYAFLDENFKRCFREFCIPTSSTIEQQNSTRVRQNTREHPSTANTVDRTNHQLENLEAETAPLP
Write the answer as a number in nM, unit excluded.

Quick one: Ki for `Oc1ccc2c3c1O[C@H]1c4ncc(-c5ccc(Cl)cc5)cc4C[C@H]4[C@@H](C2)N(CC2CC2)CC[C@]314` ?
62

Quick one: Ki for `CN1CC[C@]23c4c5ccc(O)c4O[C@H]2c2ncccc2C[C@@]3(O)[C@H]1C5` ?
7.9

Quick one: Ki for `CN1CC[C@]23c4c5ccc(O)c4O[C@H]2c2ncc(-c4ccc(Cl)cc4)cc2C[C@H]3[C@H]1C5` ?
148

----------
target: opioid μ receptor (Rattus norvegicus); settings: ratio of binding Ki values
Kindly state selectivity ratio μ/δ for each of the entries shown.
Answer with a number only.

Test system opioid μ receptor (Rattus norvegicus); read-out selectivity ratio μ/δ; what value for COc1ccc2c3c1OC1c4ncc(-c5ccccc5)cc4CC4(O)C(C2)N(C)CCC314 (stereo not shown) [7n] ?
26

Test system opioid μ receptor (Rattus norvegicus); read-out selectivity ratio μ/δ; what value for CN1CC[C@]23c4c5ccc(O)c4O[C@H]2c2ncc(-c4ccc(Cl)cc4)cc2C[C@@]3(O)[C@H]1C5 [7d] ?
58

Test system opioid μ receptor (Rattus norvegicus); read-out selectivity ratio μ/δ; what value for Oc1ccc2c3c1O[C@H]1c4ncc(-c5ccc(Cl)cc5)cc4C[C@H]4[C@@H](C2)N(CC2CC2)CC[C@]314 [7l] ?
24

Test system opioid μ receptor (Rattus norvegicus); read-out selectivity ratio μ/δ; what value for CN1CC[C@]23c4c5ccc(O)c4O[C@H]2c2ncccc2C[C@H]3[C@H]1C5 [7f] ?
2.0

Test system opioid μ receptor (Rattus norvegicus); read-out selectivity ratio μ/δ; what value for CN1CC[C@]23c4c5ccc(O)c4O[C@H]2c2ncc(-c4ccc(Cl)c(Cl)c4)cc2C[C@H]3[C@H]1C5 [7j] ?
25

Test system opioid μ receptor (Rattus norvegicus); read-out selectivity ratio μ/δ; what value for CN1CC[C@]23c4c5ccc(O)c4O[C@H]2c2ncc(-c4ccccc4)cc2C[C@H]3[C@H]1C5 [7g] ?
13

Test system opioid μ receptor (Rattus norvegicus); read-out selectivity ratio μ/δ; what value for COc1ccc2c3c1OC1c4ncc(-c5ccc(Br)cc5)cc4CC4(O)C(C2)N(C)CCC314 (stereo not shown) [7p] ?
82

Test system opioid μ receptor (Rattus norvegicus); read-out selectivity ratio μ/δ; what value for CN1CC[C@]23c4c5ccc(O)c4O[C@H]2c2ncc(-c4ccc(Cl)cc4)cc2C[C@H]3[C@H]1C5 [7h] ?
34

Test system opioid μ receptor (Rattus norvegicus); read-out selectivity ratio μ/δ; what value for CN1CC[C@]23c4c5ccc(O)c4O[C@H]2c2ncccc2C[C@@]3(O)[C@H]1C5 [7b] ?
0.4

Test system opioid μ receptor (Rattus norvegicus); read-out selectivity ratio μ/δ; what value for CN1CC[C@]23c4c5ccc(O)c4O[C@H]2c2ncc(-c4ccccc4)cc2C[C@@]3(O)[C@H]1C5 [7c] ?
9

Test system opioid μ receptor (Rattus norvegicus); read-out selectivity ratio μ/δ; what value for CN1CC[C@]23c4c5ccc(O)c4O[C@H]2c2ncc(-c4ccc(Br)cc4)cc2C[C@H]3[C@H]1C5 [7i] ?
40

Test system opioid μ receptor (Rattus norvegicus); read-out selectivity ratio μ/δ; what value for CN1CCC23c4c5ccc(O)c4OC2c2ncc(-c4ccc(Br)cc4)cc2CC3(O)C1C5 (stereo not shown) [7e] ?
49

Test system opioid μ receptor (Rattus norvegicus); read-out selectivity ratio μ/δ; what value for CN1CC[C@]23c4c5ccc(O)c4O[C@H]2c2ncc(-c4ccc(Cl)cc4Cl)cc2C[C@H]3[C@H]1C5 [7k] ?
88

----------
Kindly state pIC50 for each of the entries shown.
molecular target: δ receptor (mouse vas deferens) (Mus musculus, UniProt P32300); experiment: Mouse vas deferens (MVD) smooth muscle bioassay; details: inhibition of electrically stimulated contractions; read-out: agonist activity MVD (δ) IC50
Sequence (P32300 whole entry): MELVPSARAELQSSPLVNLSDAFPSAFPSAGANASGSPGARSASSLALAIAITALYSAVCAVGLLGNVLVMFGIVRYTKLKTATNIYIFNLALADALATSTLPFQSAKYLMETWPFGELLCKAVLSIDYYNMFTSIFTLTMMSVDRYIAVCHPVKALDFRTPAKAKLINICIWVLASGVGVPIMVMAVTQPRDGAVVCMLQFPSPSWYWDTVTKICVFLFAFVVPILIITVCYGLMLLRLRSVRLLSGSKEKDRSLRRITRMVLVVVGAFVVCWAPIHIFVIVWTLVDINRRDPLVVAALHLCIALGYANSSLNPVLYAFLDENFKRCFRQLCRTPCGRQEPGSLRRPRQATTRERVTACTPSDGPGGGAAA
Lab note: report pIC50 as minus log10 of the concentration in molar units, number only.

Quick one: pIC50 for `CN1CC[C@]23c4c5ccc(O)c4O[C@H]2c2ncc(-c4ccc(Cl)cc4)cc2C[C@H]3[C@H]1C5` ?
6.25

Quick one: pIC50 for `CN1CC[C@]23c4c5ccc(O)c4O[C@H]2c2ncc(-c4ccc(Cl)c(Cl)c4)cc2C[C@H]3[C@H]1C5` ?
6.31

Quick one: pIC50 for `CN1CC[C@]23c4c5ccc(O)c4O[C@H]2c2ncc(-c4ccccc4)cc2C[C@@]3(O)[C@H]1C5` ?
6.67

Quick one: pIC50 for `CN1CC[C@]23c4c5ccc(O)c4O[C@H]2c2ncc(-c4ccccc4)cc2C[C@H]3[C@H]1C5` ?
7.31

Quick one: pIC50 for `CN1CC[C@]23c4c5ccc(O)c4O[C@H]2c2ncccc2C[C@H]3[C@H]1C5` ?
6.82

----------
Counter-ions that a name gives are not always drawn.
Assay endpoint: melting point

Quick one: melting point for CN1CCC23c4c5ccc(O)c4OC2c2ncc(-c4ccc(Br)cc4)cc2CC3(O)C1C5 (stereo not shown) ?
196 to 198 °C

Quick one: melting point for COc1ccc2c3c1OC1c4ncc(-c5ccccc5)cc4CC4(O)C(C2)N(C)CCC314 (stereo not shown) ?
> 250 °C

Quick one: melting point for `Oc1ccc2c3c1O[C@H]1c4ncc(-c5ccc(Cl)cc5)cc4C[C@H]4[C@@H](C2)N(CC2CC2)CC[C@]314` ?
178 to 180 °C

Quick one: melting point for `CN1CC[C@]23c4c5ccc(O)c4O[C@H]2c2ncc(-c4ccc(Br)cc4)cc2C[C@H]3[C@H]1C5` ?
186 to 188 °C

Quick one: melting point for `CN1CC[C@]23c4c5ccc(O)c4O[C@H]2c2ncccc2C[C@@]3(O)[C@H]1C5` ?
> 230 °C

Quick one: melting point for `COc1ccc2c3c1O[C@H]1c4ncc(-c5ccc(Cl)cc5)cc4C[C@@]4(O)[C@@H](C2)N(C)CC[C@]314` ?
112 to 114 °C

Quick one: melting point for `CN1CC[C@]23c4c5ccc(O)c4O[C@H]2c2ncccc2C[C@H]3[C@H]1C5` ?
164 to 166 °C

Quick one: melting point for `COc1ccc2c3c1O[C@H]1c4ncc(-c5ccc(Cl)cc5)cc4C[C@H]4[C@@H](C2)N(CC2CC2)CC[C@]314` ?
196 to 198 °C

Quick one: melting point for CN1CC[C@]23c4c5ccc(O)c4O[C@H]2c2ncc(-c4ccc(Cl)cc4)cc2C[C@H]3[C@H]1C5 (as salt: salt) ?
276 to 278 °C (dec.)

Quick one: melting point for `COc1ccc2c3c1O[C@H]1c4ncccc4C[C@@]4(O)[C@@H](C2)N(C)CC[C@]314` ?
210 to 212 °C

Quick one: melting point for `CN1CC[C@]23c4c5ccc(O)c4O[C@H]2c2ncc(-c4ccc(Cl)c(Cl)c4)cc2C[C@H]3[C@H]1C5` ?
184 to 186 °C

Quick one: melting point for `C=CCN1CC[C@]23c4c5ccc(O)c4O[C@H]2c2ncc(-c4ccc(Cl)cc4)cc2C[C@@]3(O)[C@H]1C5` ?
168 to 172 °C

Quick one: melting point for `CN1CC[C@]23c4c5ccc(O)c4O[C@H]2c2ncc(-c4ccc(Cl)cc4)cc2C[C@@]3(O)[C@H]1C5` ?
196 to 198 °C

Quick one: melting point for COc1ccc2c3c1OC1c4ncc(-c5ccc(Br)cc5)cc4CC4(O)C(C2)N(C)CCC314 (stereo not shown) ?
> 230 °C

Quick one: melting point for `CN1CC[C@]23c4c5ccc(O)c4O[C@H]2c2ncc(-c4ccc(Cl)cc4Cl)cc2C[C@H]3[C@H]1C5` ?
198 to 200 °C

Quick one: melting point for `CN1CC[C@]23c4c5ccc(O)c4O[C@H]2c2ncc(-c4ccccc4)cc2C[C@@]3(O)[C@H]1C5` ?
190 to 192 °C

----------
Kindly state pKi for each of the entries shown.
target: δ receptor (Cavia porcellus, UniProt A0A286XTF2)
Sequence (A0A286XTF2 1-366): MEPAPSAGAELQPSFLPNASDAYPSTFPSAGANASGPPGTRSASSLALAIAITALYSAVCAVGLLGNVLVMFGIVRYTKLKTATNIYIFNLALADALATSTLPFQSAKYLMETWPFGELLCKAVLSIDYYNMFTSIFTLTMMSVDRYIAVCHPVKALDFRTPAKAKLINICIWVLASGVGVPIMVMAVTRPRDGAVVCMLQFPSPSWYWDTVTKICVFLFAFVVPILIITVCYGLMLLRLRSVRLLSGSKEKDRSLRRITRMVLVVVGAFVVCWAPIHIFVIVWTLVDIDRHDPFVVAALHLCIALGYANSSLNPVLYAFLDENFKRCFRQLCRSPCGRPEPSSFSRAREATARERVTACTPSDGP
Lab note: report pKi as minus log10 of the concentration in molar units, number only.

Quick one: pKi for `CN1CC[C@]23c4c5ccc(O)c4O[C@H]2c2ncccc2C[C@H]3[C@H]1C5` ?
6.23

Quick one: pKi for `Oc1ccc2c3c1O[C@H]1c4ncc(-c5ccc(Cl)cc5)cc4C[C@@]4(O)[C@@H](C2)N(CC2CC2)CC[C@]314` ?
9.74

Quick one: pKi for `CN1CC[C@]23c4c5ccc(O)c4O[C@H]2c2ncc(-c4ccc(Cl)cc4)cc2C[C@H]3[C@H]1C5` ?
7.96

Quick one: pKi for `Oc1ccc2c3c1O[C@H]1c4ncc(-c5ccc(Cl)cc5)cc4C[C@H]4[C@@H](C2)N(CC2CC2)CC[C@]314` ?
8.81

Quick one: pKi for `CN1CC[C@]23c4c5ccc(O)c4O[C@H]2c2ncc(-c4ccc(Cl)cc4)cc2C[C@@]3(O)[C@H]1C5` ?
7.77

Quick one: pKi for `CN1CC[C@]23c4c5ccc(O)c4O[C@H]2c2ncc(-c4ccc(Cl)cc4Cl)cc2C[C@H]3[C@H]1C5` ?
8.97

Values were extracted from patent US7541364B2.
